- Subject Of Test: T1, IL-18 binding protein (IL-18BP) (UniProt O95998 31-194)
- T1 sequence (looked up): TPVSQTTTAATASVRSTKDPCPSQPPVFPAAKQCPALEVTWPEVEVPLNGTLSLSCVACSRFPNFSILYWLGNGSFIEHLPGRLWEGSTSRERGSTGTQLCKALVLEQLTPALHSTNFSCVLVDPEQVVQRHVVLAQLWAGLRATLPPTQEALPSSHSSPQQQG
- Assay Protocol: cell-based or functional assay
Below: a set of entries, each annotated with reported Ratio (-BP/+BP), DF-1000005.

{"Binder": "IL-18 variant G3P, E6K, D54R, S55P, T63A, N91V (ligand) YFPKLKSKLSVIRNLNDQVLFIDQGNRPLFEDMTDSDMRDNAPRTIFIISMYKRPQPRGMAVAISVKSEKISTLSSENKIISFKEMNPPDVIKDTKSDIIFFQRSVPGHDNKMQFESSSYEGYFLASEKERDLFKLILKKEDELGDRSIMFTVQNED", "Ratio (-BP/+BP), DF-1000005": 0.98}

Suppose we examine the binder IL-18 variant E6N, D54N, S55N, N91H, R104P (ligand) YFGKLNSKLSVIRNLNDQVLFIDQGNRPLFEDMTDSDMRDNAPRTIFIISMYKNNQPRGMAVTISVKSEKISTLSSENKIISFKEMNPPDHIKDTKSDIIFFQPSVPGHDNKMQFESSSYEGYFLASEKERDLFKLILKKEDELGDRSIMFTVQNED ; what Ratio (-BP/+BP), DF-1000005 value has been reported?
0.99

Suppose we examine the binder IL-18 variant G3I, E6D, D54A, S55F, N91Y, R104H (ligand) YFIKLDSKLSVIRNLNDQVLFIDQGNRPLFEDMTDSDMRDNAPRTIFIISMYKAFQPRGMAVTISVKSEKISTLSSENKIISFKEMNPPDYIKDTKSDIIFFQHSVPGHDNKMQFESSSYEGYFLASEKERDLFKLILKKEDELGDRSIMFTVQNED ; what Ratio (-BP/+BP), DF-1000005 value has been reported?
1.02
